Entries annotated with measured viability at 28.5 h, 10 µM
# Test Name: in vitro
# Conditions Used: human, hela cells, % viability
Return type: number; implicit unit %.

C=CCN1CCC2(CC1)CN(C(C)=O)Cc1cc(C)ccc1O2 : 97.5
CC(C)Cc1csc2nc(-c3ccc(Br)cc3)oc(=O)c12 : 96.7
CC(=O)NCC1CCC2(CCN(c3nc(C)nc(C)c3C)CC2)O1 (centres unmarked) : 94.1

The record that follows has no viability at 28.5 h, 10 µM shown yet.
Just so you know, measured viability at 28.5 h, 10 µM for N#Cc1c(F)cccc1NCc1cccnc1 came out at 116

* * *

# Test Name: in vitro
# Conditions Used: human, hela cells, % viability
Endpoint Name: viability at 28.5 h, 10 µM (%)
Return type: number; implicit unit %.

Examples with answers:
COc1ccc2c(c1)c(C(=O)N1CCn3nc(CO)cc3C1)c(C)n2C : 88.5
Cc1nnc(-c2cccc(S(=O)(=O)n3ccn(-c4cccc(C(F)(F)F)c4)c3=O)c2)o1 : 91.9

Just so you know, measured viability at 28.5 h, 10 µM for CN(C)C(=O)[C@H]1CN2CCC1C[C@@H]2Cn1cc(CCO)nn1 (stereo partly drawn) came out at 89.9

FYI, the data here is from paper PMC12040169.
